Attribution: the supplement of paper PMC10567573

B1: KCNA3 (parent)
chain: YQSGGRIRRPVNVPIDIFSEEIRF

Variants of: B1
ASSAY PROCEDURE: protein stability index of a GFP-peptide fusion (GPS, HEK-293T) (PSI 1-6); higher = more stable;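 further: lentivirally expressed fusions sorted by FACS into six bins by GFP to DsRed ratio, PSI derived from sequencing read proportions per bin multiplied by bin number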
CONDITION LABEL: c terminus: a fixed tail appended
PROPERTY: protein stability index
Quick one: just the number, no unit, thanks!

GET /values?readout=protein stability index&item= S3G 1.81

Entry under review: F18P . Reported protein stability index? 2.55

Would you kindly share the measured protein stability index for V13P ? 1.86

Looking for the measured protein stability index of S3P , can you help? 2.22

So what does the record say about protein stability index for N12Y ? 1.08

What value of protein stability index has been reported for the following variant? R23P 1.97

Consider the variant shown here: Q2Y What is its recorded protein stability index? 2.46

protein stability index for P10R ? 1.64

# lookup: protein stability index of I7E 2.17

Bench note: what protein stability index did P14T show? 1.81
